# maps each entry to its log10(half-life)
EXPERIMENT SUMMARY: Metabolic stability in cryopreserved human liver microsomes assessed as half life
Format: ADME, Microsome
In our notation, the value equals log10 of half-life in min.

- Cc1cnc(Nc2ccc3c(c2)CCN3S(=O)(=O)c2ccc(C(F)(F)F)cc2)nc1-c1cnn(CCC#N)c1: 1.34

Lab note: measured log10(half-life) of N#CCCn1cc(-c2nc(Nc3ccc4c(ccn4C(=O)C4CC4)c3)ncc2F)cn1 was 1.84

Lab note: measured log10(half-life) of CCOC(C)n1cc(-c2nc(Nc3ccc4c(c3)CCN4S(=O)(=O)c3ccc(C(F)(F)F)cc3)ncc2C)cn1 (stereo not drawn) was 1.18

Lab note: measured log10(half-life) of Cc1cnc(Nc2ccc3c(c2)CCN3S(=O)(=O)c2ccc(C(F)(F)F)cc2)nc1-c1cnn(C2CCC2)c1 was 1.29

Lab note: measured log10(half-life) of Cc1cnc(Nc2ccc3c(c2)CCN3S(=O)(=O)c2ccc(C(F)(F)F)cc2)nc1-c1cnn(C2CC2)c1 was 0.62

Lab note: measured log10(half-life) of N#CCCn1cc(-c2nc(Nc3ccc4c(ccn4S(=O)(=O)C(F)(F)F)c3)ncc2F)cn1 was 2.09

Lab note: measured log10(half-life) of N#CCCn1cc(-c2nc(Nc3ccc4c(c3)CCN4C(=O)c3ccc(C(F)(F)F)cc3)ncc2F)cn1 was 1.24

Lab note: measured log10(half-life) of Cc1cnc(Nc2ccc3c(c2)CCN3S(=O)(=O)c2ccc(C(F)(F)F)cc2)nc1-c1cnn(C)c1 was 0.86

* * *

# maps each entry to its Selectivity Index
Species: Homo sapiens
EXPERIMENT SUMMARY: Selectivity index, ratio of IC50 for inhibition of recombinant human JAK2 (808 to end residues) to IC50 for inhibition of recombinant human TYK2 (875 to end residues)
Lab note: record the figure alone, no unit after it.

For orientation, consider the following solved cases.
* Cc1cnc(Nc2ccc3c(c2)CCN3S(=O)(=O)c2ccc3c(c2)CC(=O)N3)nc1-c1cnn(C(C)C)c1 | 2.03
* Cc1cnc(Nc2ccc3c(c2)CCN3C(=O)C2CC2(F)F)nc1-c1cnn(C(C)C)c1 (stereo not drawn) | 1.16
* Cc1cnc(Nc2ccc3c(c2)CCN3C(=O)c2cccc(C(F)(F)F)c2)nc1-c1cnn(C(C)C)c1 | 4.49
* Cc1cnc(Nc2ccc3c(c2)CCN3C(=O)CN2CCS(=O)(=O)CC2)nc1-c1cnn(C(C)C)c1 | 1.51
* Cc1cnc(Nc2ccc3c(c2)CCN3C(=O)c2ccc(C(F)(F)F)cc2F)nc1-c1cnn(C(C)C)c1 | 2.36

Lab note: measured Selectivity Index of Cc1cnc(Nc2ccc3c(c2)CCN3C(=O)Cc2ccc(OC(F)(F)F)cc2)nc1-c1cnn(C(C)C)c1 was 7.8

Lab note: measured Selectivity Index of COc1ccc(S(=O)(=O)N2CCc3cc(Nc4ncc(C)c(-c5cnn(C(C)C)c5)n4)ccc32)cc1 was 3.08

* * *

TARGET OR TEST SYSTEM: Non-receptor tyrosine-protein kinase TYK2 (Homo sapiens, UniProt P29597)
Sequence (P29597 whole entry): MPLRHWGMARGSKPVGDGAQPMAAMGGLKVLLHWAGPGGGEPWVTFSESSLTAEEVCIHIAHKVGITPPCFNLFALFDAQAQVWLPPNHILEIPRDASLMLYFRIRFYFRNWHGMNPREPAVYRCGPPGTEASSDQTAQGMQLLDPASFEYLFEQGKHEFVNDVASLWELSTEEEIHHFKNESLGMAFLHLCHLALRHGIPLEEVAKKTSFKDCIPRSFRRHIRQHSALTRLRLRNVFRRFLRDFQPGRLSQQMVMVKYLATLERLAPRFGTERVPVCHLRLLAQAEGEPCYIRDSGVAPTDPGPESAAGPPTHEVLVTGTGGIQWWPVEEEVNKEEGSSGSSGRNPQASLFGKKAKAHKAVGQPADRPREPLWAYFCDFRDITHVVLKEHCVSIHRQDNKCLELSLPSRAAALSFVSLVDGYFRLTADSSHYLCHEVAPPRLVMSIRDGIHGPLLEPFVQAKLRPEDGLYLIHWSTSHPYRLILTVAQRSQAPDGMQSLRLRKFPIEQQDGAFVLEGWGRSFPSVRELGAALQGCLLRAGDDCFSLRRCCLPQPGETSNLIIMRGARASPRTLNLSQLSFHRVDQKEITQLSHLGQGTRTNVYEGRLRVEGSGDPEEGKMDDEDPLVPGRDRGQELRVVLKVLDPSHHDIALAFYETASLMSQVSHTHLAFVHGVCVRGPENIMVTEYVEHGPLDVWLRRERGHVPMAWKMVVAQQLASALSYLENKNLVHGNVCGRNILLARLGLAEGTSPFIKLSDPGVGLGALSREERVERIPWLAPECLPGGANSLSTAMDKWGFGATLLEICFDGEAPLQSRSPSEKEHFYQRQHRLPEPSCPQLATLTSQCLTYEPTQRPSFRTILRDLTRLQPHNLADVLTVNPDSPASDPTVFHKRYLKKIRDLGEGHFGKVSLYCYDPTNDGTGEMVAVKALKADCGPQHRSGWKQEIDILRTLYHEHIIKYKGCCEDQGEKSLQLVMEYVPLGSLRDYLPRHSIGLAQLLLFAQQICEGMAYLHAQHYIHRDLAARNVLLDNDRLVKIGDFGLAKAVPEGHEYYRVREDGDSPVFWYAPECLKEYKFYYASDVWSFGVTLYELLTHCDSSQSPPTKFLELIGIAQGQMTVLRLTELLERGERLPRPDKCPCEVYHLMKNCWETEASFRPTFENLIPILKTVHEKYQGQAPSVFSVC
EXPERIMENT SUMMARY: Inhibition of recombinant human TYK2 (875 to end residues) using GGMEDIYFEFMGG as substrate incubated for 40 mins in presence of [gamma33P]ATP by scintillation counting based radiometry assay
MEASURED ENDPOINT: pIC50
Expect pIC50 as a plain number equal to -log10 of the molar concentration.

For orientation, consider the following solved cases.
* N#CCCn1cc(-c2nc(Nc3ccc4c(c3)CCN4C(=O)c3ccc(C(F)(F)F)cc3)ncc2F)cn1 | 8.30
* CCS(=O)(=O)N1CCc2cc(Nc3ncc(C)c(-c4cnn(C(C)C)c4)n3)ccc21 | 8.79

Consider the additional molecule presented here.
Lab note: measured pIC50 of N#CCCn1cc(-c2nc(Nc3ccc4c(c3)CCN4S(=O)(=O)c3ccc(C(F)(F)F)cc3)ncc2F)cn1 was 8.05

* * *

EXPERIMENT SUMMARY: Metabolic stability in cryopreserved human liver microsomes assessed as half life
Type: ADME, Microsome
Values of half-life greater than or equal to 10 min map to yes; values below map to no.

Observe how each entry below is paired with its result.
- N#CCCn1cc(-c2nc(Nc3ccc4c(c3)CCN4)ncc2F)cn1: no
- Cc1cnc(Nc2ccc3c(c2)CNC3=O)nc1-c1cnn(CCC#N)c1: no
- Cn1ccc2cc(Nc3ncc(F)c(-c4cnn(CCC#N)c4)n3)ccc21: no

Challenge: Is it the case that N#CCCn1cc(-c2nc(Nc3ccc4c(c3)CCN4C(=O)C3(C#N)CC3)ncc2F)cn1 has half-life reaching or exceeding 10 min?
Response given: yes

* * *

TARGET OR TEST SYSTEM: Tyrosine-protein kinase JAK3 (Homo sapiens, UniProt P52333)
Sequence (P52333 whole entry): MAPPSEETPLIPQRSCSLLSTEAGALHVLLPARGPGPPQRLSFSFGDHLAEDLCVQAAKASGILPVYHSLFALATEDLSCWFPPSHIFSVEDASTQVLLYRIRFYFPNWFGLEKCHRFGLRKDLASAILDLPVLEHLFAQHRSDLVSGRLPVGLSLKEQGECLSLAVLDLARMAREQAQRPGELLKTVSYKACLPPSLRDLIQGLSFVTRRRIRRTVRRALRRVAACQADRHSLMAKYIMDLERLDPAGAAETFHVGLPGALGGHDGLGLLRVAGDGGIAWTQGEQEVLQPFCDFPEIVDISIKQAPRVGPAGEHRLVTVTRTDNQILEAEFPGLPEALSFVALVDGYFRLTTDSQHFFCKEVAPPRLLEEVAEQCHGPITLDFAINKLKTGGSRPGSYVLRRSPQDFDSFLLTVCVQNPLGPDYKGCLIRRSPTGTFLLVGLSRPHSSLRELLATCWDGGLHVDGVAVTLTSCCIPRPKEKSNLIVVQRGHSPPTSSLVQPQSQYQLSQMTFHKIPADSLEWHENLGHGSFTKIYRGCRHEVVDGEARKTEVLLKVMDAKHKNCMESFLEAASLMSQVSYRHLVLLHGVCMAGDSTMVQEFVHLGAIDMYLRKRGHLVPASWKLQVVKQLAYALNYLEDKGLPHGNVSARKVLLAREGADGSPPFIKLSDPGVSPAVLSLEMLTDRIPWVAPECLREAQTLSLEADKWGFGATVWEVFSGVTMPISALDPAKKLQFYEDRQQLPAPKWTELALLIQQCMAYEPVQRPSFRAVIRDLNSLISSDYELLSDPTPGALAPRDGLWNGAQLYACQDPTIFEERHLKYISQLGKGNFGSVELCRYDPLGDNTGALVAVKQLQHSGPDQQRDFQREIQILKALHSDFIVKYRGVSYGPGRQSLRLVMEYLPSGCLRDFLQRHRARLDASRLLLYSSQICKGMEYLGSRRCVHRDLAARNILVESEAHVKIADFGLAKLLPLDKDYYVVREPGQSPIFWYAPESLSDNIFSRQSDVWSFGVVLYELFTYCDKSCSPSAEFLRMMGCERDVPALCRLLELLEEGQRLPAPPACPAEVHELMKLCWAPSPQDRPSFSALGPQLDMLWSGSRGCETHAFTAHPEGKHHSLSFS
EXPERIMENT SUMMARY: Inhibition of recombinant human JAK3 (781 to end residues) using GGEEEEYFELVKKKK as substrate measured after 40 mins in presence of [gamma33P]ATP by scintillation counting based radiometry assay
MEASURED ENDPOINT: pIC50
Expect pIC50 as a plain number equal to -log10 of the molar concentration.

For orientation, consider the following solved cases.
• N#CCCn1cc(-c2nc(Nc3ccc4c(c3)CCN4C(=O)CN3CCS(=O)(=O)CC3)ncc2F)cn1 = 6.61
• CCOC(C)n1cc(-c2nc(Nc3ccc4c(c3)CCN4S(=O)(=O)c3ccc(C(F)(F)F)cc3)ncc2C)cn1 (centres undefined) = 6.29
• Cc1cnc(Nc2ccc(NS(=O)(=O)c3ccc(C(F)(F)F)cc3)c(F)c2)nc1-c1cnn(C(C)C)c1 = 6.16

For the compound N#CCCn1cc(-c2nc(Nc3ccc4c(c3)CCN4C(=O)C3(C#N)CC3)ncc2F)cn1 , the measured pIC50 on Tyrosine-protein kinase JAK3 (Homo sapiens, UniProt P52333) was 6.72

* * *

EXPERIMENT SUMMARY: Tmax in Sprague-Dawley rat at 20 mg/kg, po by LC-MS/MS analysis
Type: ADME, organism-based
CONDITIONS USED: in vivo
MEASURED ENDPOINT: Tmax (h)
// note: answer is a bare numeric in h

Lab note: measured Tmax of N#CCCn1cc(-c2nc(Nc3ccc4c(ccn4S(=O)(=O)C(F)(F)F)c3)ncc2F)cn1 was 1

* * *

EXPERIMENT SUMMARY: Half life in Sprague-Dawley rat at 20 mg/kg, po by LC-MS/MS analysis
Type: ADME, organism-based
CONDITIONS USED: in vivo
MEASURED ENDPOINT: half-life (h)
// note: answer is a bare numeric in h

Lab note: measured half-life of N#CCCn1cc(-c2nc(Nc3ccc4c(ccn4S(=O)(=O)C(F)(F)F)c3)ncc2F)cn1 was 3.64

* * *

EXPERIMENT SUMMARY: Clearance in Sprague-Dawley rat at 5 mg/kg, iv by LC-MS/MS analysis
Assay type: ADME, organism-based
CONDITIONS USED: in vivo
MEASURED ENDPOINT: clearance (mL/min/kg)
// note: answer is a bare numeric in mL/min/kg

Lab note: measured clearance of N#CCCn1cc(-c2nc(Nc3ccc4c(ccn4S(=O)(=O)C(F)(F)F)c3)ncc2F)cn1 was 1.58

* * *

EXPERIMENT SUMMARY: Cmax in Sprague-Dawley rat at 5 mg/kg, iv by LC-MS/MS analysis
Type: ADME, organism-based
Parameters: route intravenous, dose 5 mg/kg
CONDITIONS USED: in vivo
MEASURED ENDPOINT: Cmax (ng/mL)
// note: answer is a bare numeric in ng/mL

Lab note: measured Cmax of N#CCCn1cc(-c2nc(Nc3ccc4c(ccn4S(=O)(=O)C(F)(F)F)c3)ncc2F)cn1 was 48.5

* * *

TARGET OR TEST SYSTEM: Tyrosine-protein kinase JAK2 (Homo sapiens, UniProt O60674)
Sequence (O60674 whole entry): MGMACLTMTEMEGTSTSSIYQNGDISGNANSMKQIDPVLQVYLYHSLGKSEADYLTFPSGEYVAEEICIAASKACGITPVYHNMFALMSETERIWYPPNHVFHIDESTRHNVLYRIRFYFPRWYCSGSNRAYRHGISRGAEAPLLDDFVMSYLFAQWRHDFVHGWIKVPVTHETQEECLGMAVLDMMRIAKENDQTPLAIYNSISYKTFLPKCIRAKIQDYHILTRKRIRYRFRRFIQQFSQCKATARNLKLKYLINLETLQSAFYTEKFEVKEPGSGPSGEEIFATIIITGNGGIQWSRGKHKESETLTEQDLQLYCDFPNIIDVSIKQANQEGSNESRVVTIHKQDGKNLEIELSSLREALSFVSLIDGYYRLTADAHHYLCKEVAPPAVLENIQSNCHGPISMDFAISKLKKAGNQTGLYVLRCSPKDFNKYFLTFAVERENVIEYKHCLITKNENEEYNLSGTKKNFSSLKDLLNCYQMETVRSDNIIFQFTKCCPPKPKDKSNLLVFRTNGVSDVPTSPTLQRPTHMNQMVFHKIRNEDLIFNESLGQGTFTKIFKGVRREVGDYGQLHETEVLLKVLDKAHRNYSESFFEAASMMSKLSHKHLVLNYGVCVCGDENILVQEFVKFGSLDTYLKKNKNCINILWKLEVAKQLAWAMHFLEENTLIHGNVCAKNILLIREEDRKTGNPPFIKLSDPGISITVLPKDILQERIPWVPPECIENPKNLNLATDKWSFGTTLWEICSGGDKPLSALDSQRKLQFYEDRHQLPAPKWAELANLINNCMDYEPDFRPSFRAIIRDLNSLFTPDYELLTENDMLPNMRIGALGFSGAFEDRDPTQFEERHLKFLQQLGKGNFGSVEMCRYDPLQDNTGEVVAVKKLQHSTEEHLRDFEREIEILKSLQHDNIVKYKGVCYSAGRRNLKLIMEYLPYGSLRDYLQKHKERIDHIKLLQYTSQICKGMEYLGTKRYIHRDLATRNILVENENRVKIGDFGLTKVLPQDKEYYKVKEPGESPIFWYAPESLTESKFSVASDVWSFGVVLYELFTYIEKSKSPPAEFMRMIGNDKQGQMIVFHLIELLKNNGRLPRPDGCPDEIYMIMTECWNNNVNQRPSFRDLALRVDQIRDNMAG
EXPERIMENT SUMMARY: Inhibition of recombinant human JAK2 (808 to end residues) KTFCGTPEYLAPE as substrate measured after 40 mins in presence of [gamm33P]ATP by scintillation counting based radiometry assay
MEASURED ENDPOINT: pIC50
Expect pIC50 as a plain number equal to -log10 of the molar concentration.

- CC(C)(C)c1ccc(C(=O)N2CCc3cc(Nc4ncc(F)c(-c5cnn(CCC#N)c5)n4)ccc32)cc1: 6.22
- Cc1cnc(Nc2ccc3c(c2)CCN3C(=O)[C@H]2CCCN2)nc1-c1cnn(C(C)C)c1: 8.52
- Cc1cnc(Nc2ccc3c(c2)CCN3C(=O)c2ccc(C(F)(F)F)cc2F)nc1-c1cnn(C(C)C)c1: 7.60
- Cc1cnc(Nc2ccc3c(c2)CCN3C(=O)[C@@H]2C[C@@H]2F)nc1-c1cnn(C(C)C)c1: 7.98
- CCS(=O)(=O)N1CCc2cc(Nc3ncc(C)c(-c4cnn(C(C)C)c4)n3)ccc21: 8.57

Lab note: measured pIC50 of Cc1cnc(Nc2ccc3c(c2)CCN3S(=O)(=O)c2ccc(C(F)(F)F)cc2)nc1-c1cnn(C(C)C)c1 was 7.09

Lab note: measured pIC50 of CCCS(=O)(=O)N1CCc2cc(Nc3ncc(C)c(-c4cnn(C(C)C)c4)n3)ccc21 was 8.64

Lab note: measured pIC50 of Cc1cnc(Nc2ccc3c(c2)CCN3C(=O)Cc2ccc(OC(F)(F)F)cc2)nc1-c1cnn(C(C)C)c1 was 6.40
